assay_procedure: Solvent stability: strontium distribution ratios as a function of contact time with 1.5 M HNO3
Assay type: physicochemical
experimental_context: contact time 278 days with 1.5 M HNO3
recorded_metric: Strontium distribution ratio as a function of contact time
Form rule: numeric answer, no unit written next to it.

- compound: "CCCCC(CC)COc1c2cccc1Cc1cccc3c1OCCOCCOc1ccccc1OCCOCCOc1c(cccc1Cc1cccc(c1OC[C@H](CC)CCCC)C3)C2 (stereo partly shown)"
  value_measured: 7.6

Requested field: Strontium distribution ratio as a function of contact time. Item: CCCCCCCCCCOc1c2cccc1Cc1cccc3c1OCCOCCOc1ccccc1OCCOCCOc1c(cccc1Cc1cccc(c1OCCCCCCCCCC)C3)C2 7.7

Requested field: Strontium distribution ratio as a function of contact time. Item: CC(C)CCCC(C)CCOc1c2cccc1Cc1cccc3c1OCCOCCOc1ccccc1OCCOCCOc1c(cccc1Cc1cccc(c1OCCC(C)CCCC(C)C)C3)C2 (stereo not shown) [MC-10B] 8.0

Requested field: Strontium distribution ratio as a function of contact time. Item: CCCCCCCCOc1c2cccc1Cc1cccc3c1OCCOCCOc1ccccc1OCCOCCOc1c(cccc1Cc1cccc(c1OCCCCCCCC)C3)C2 8.0

meta.source: patent US8158088B2
